Please respond with reported Percent Effect for every item in the list.
Tested on: Wolbachia pipientis
EXPERIMENT_DESCRIPTION: Anti-Wolbachia Cell-Based Screen
Format: functional
Design: scale not given: in the data most compounds retested in dose-response had high values
ASSAY_CONTEXT: 5 µM
In all, about 48,000 compounds went through this assay and about 13,000 (27%) showed an effect of 50% or more. This is one part of the list.
Give bare numbers, in %.

Some molecules with recorded Percent Effect:
Input line: Value lookup for Percent Effect; key = `O=S1(=O)NC(c2ccnc(N3CCOCC3)n2)=Nc2ccccc21`
Output line: 140.3

Input line: For the molecule shown here, CC(OCc1ccccc1)C(=O)NC1CCN(CC(N)=O)CC1 (stereo not given) , give the reported Percent Effect.
Output line: -2.8

Items follow; give Percent Effect for each.
1. COCCN(CCOC)S(=O)(=O)N(C)Cc1ccncc1
2. Cc1nn(-c2ccccc2)c(C)c1-c1ccnc(N2CCCOCC2)n1
3. COc1ccnc(CN2CCCC(CCc3ccccc3)C2)c1OC (stereo not given)
4. Cn1ncc2c(=O)[nH]c(N3CCN(C(=O)c4ccsc4)CC3)nc21
5. Cc1nc(N2CCN(C(=O)c3ccccc3)CC2)c2c(n1)c(C)nn2C

Output line:
[7.861, 7.099, -14.6, 8.888, 38.43]

----------
Test system: Wolbachia pipientis
EXPERIMENT_DESCRIPTION: Anti-Wolbachia Cell-Based Screen
Type: functional
Design: scale not given: in the data most compounds retested in dose-response had high values
ASSAY_CONTEXT: 5 µM
Hit rate of the full screen: of about 48,000 compounds, about 13,000 (27%) showed an effect of 50% or more. The list shows a part of the results.
READOUT_LABEL: Percent Effect (%)
Give bare numbers, in %.

Input line: // query Percent Effect value for entry `CC(C)CN1C[C@H]2N(c3ncccn3)CCC[C@@]2(C(=O)NCC2CC2)C1`
Output line: 98.73

Input line: # query: Percent Effect of entry `CNC(=O)[C@@]12CCCN(c3ncccn3)[C@@H]1CN(c1ncc(F)cn1)C2`
Output line: 0.8573

Input line: I am curious: what Percent Effect value has been reported for `CNC(=O)N1C[C@H]2N(c3ncccn3)CCC[C@@]2(C(=O)NCC2CC2)C1` ?
Output line: 110.5

Input line: Entry under review: CCc1nc(C2CCCN(C(=O)CN(C)S(C)(=O)=O)C2)no1 (stereo unspecified) . Reported Percent Effect?
Output line: 1.006

Input line: Need Percent Effect of CCc1nc(C2CCCN(C(=O)C(C)(C)NS(C)(=O)=O)C2)no1 (stereo unspecified) , thanks.
Output line: 113.6

Give Percent Effect for all molecules that follow.
1. CNC(=O)[C@@]12CCCN(c3ncccn3)[C@@H]1CN(c1ncc(C)cn1)C2
2. CCNC(=O)N1CCCC(c2noc(CC)n2)C1 (stereo unspecified)
3. CNC(=O)[C@@]12CCCN(c3ncccn3)[C@@H]1CN(C(=O)NC(C)C)C2
4. CCc1nc(C2CCCN(C(=O)NC(C)C)C2)no1 (stereo unspecified)

Output line:
[-6.772, -3.898, -11.1, 123.4]

Give Percent Effect for each of the items listed below.
1. CCc1nc(C2CCCN(C(=O)CC3CCOCC3)C2)no1 (stereo unspecified)
2. CCCOCC(=O)N1CCCN(Cc2csc(CC)n2)CC1

Output line:
122.8
2.804

----------
System: Wolbachia pipientis
EXPERIMENT_DESCRIPTION: Anti-Wolbachia Cell-Based Screen
Assay type: functional
Set-up: scale not given: in the data most compounds retested in dose-response had high values
ASSAY_CONTEXT: 5 µM
Screen size: about 48,000 compounds; about 13,000 (27%) showed an effect of 50% or more. The list shows a part of the results.
READOUT_LABEL: Percent Effect (%)
One number for each entry, in %.

Reference set (8 entries):
Input line: Can you share its Percent Effect? I mean this compound: Cc1cnn(C2CCCN(C(=O)CCCOc3ccccc3F)C2)c1 (centres undefined)
Output line: 143.9

Input line: Which measured Percent Effect value corresponds to `CCOCCS(=O)(=O)Cc1ccn(-c2cccc(F)c2)n1` ?
Output line: -15

Input line: Name the recorded Percent Effect for `Cc1nnc([C@H]2C[C@H]3OCC[C@H]3N(S(=O)(=O)N(C)C)C2)o1` .
Output line: -11.67

Input line: Suppose we examine the compound `Cc1nnc(N2C[C@@H]3CCCO[C@@H]3[C@H](N(C)C)C2)s1` ; what Percent Effect value has been reported?
Output line: -8.785

Input line: Would you mind telling me what Percent Effect value was observed for `Cc1ncnc2c1CCN(C(=O)c1ccncc1F)CC2.O=C(O)C(F)(F)F` ?
Output line: -20.75

Input line: Form field: reported Percent Effect of CN(Cc1cnn(C)c1)C(=O)NC1CCC(O)CC1 (centres undefined)
Output line: 16.63

Input line: Please report the recorded Percent Effect for `CCN1CCN(C[C@@H]2CN(c3ncccc3C(F)(F)F)C[C@@H]2CO)CC1` .
Output line: -2.806

Input line: Given the compound CN(C)C(CNCc1nc(-c2ccsc2)no1)c1cccs1 (centres undefined) , what is its reported Percent Effect?
Output line: 32.89

For each of the compounds below, note its Percent Effect.
1. CCCN1CC2(CCN(c3cc(C4CC4)ncn3)CC2)CC1C(=O)O (centres undefined)
2. Cc1cnn(C2CCCN(C(=O)CCCOc3cccc(F)c3)C2)c1 (centres undefined)
3. O=C(CCNc1ncccn1)N1CCCC(n2ccnc2)C1 (centres undefined)

Output line:
-4.033
4.981
-7.544

----------
System: Wolbachia pipientis
EXPERIMENT_DESCRIPTION: Anti-Wolbachia Cell-Based Screen
Format: functional
Design: scale not given: in the data most compounds retested in dose-response had high values
ASSAY_CONTEXT: 5 µM
Among all 48,000 compounds or so, about 13,000 (27%) showed an effect of 50% or more. The list shows a part of the results.
READOUT_LABEL: Percent Effect (%)
Numbers only, in %.

Reference set, count: 3
Input line: Return reported Percent Effect; argument: `COc1ccccc1NC(=O)NCc1cn[nH]c1`
Output line: 15.69

Input line: State the recorded Percent Effect for this entry: CN(C)C1CCCN(C(=O)c2cccc(-c3ncc[nH]3)c2)CC1 (stereo unspecified)
Output line: 2.392

Input line: What value of Percent Effect has been recorded for this entry: `CN(C)C(=O)CN1CCC2(CC1)CC(=O)c1c(ccc3ccccc13)O2`
Output line: 104.8

// each listed compound needs a value for Percent Effect
1. COc1ccc(CNC(=O)Cc2csc(C(C)=O)c2)cc1
2. Cn1cc(Cl)cc1C(=O)N1CCC2(CCCN(CC3CC3)C2=O)C1 (stereo unspecified)
3. C[C@@H]1CN(C(=O)CCN2CCCC2)CC[C@@]1(O)C1CCOCC1

Output line:
2.837
-20.81
18.72

Go through the list and state Percent Effect for each entry.
1. Cc1noc(CSc2ccc(C(F)(F)F)cn2)n1
2. Cc1ccc2cc(C(=O)N3CCCN(C)CC3)ccc2n1
3. CC(NS(C)(=O)=O)C(=O)N(C)Cc1csc(-c2cccs2)n1 (stereo unspecified)

Output line:
-11.43
16.24
-6.188

Report Percent Effect for every entry below.
1. Cc1ccccc1-c1cc(C(=O)NCCN2CCCS2(=O)=O)[nH]n1
2. CN1CCN(C(=O)c2n[nH]c3c2CN(Cc2nccs2)CC3)CC1
3. CCS(=O)(=O)N1C[C@@H](c2ccccc2)[C@@]2(CCNC2=O)C1
4. COc1ccccc1NC(=O)NCc1nnc(SC)n1C
5. CC(C)OC(=O)N1CCCC2(CCC(=O)N(CCc3c[nH]cn3)C2)C1 (stereo unspecified)
6. CNc1nc(CNC(=O)Nc2ccccc2SC)cs1

Output line:
-0.2577
-8.434
107.9
134.3
2.776
0.4301

Please give Percent Effect for each item listed below.
1. O=C(CCc1nc2cccnc2[nH]1)NCc1cccnc1
2. CN(C)C(=O)CN1CCN(C(=O)C2CSc3ccccc3O2)CC1 (stereo unspecified)
3. COc1ccc(OCc2cc(C(=O)N3C[C@@H](C)O[C@@H](C)C3)n[nH]2)c(Cl)c1
4. CCOCCCC(=O)NCc1ccnc(N2CCN(C)CC2)c1
5. CN(C)C(=O)CN1CCC2(CC1)CC(=O)c1ccc3ccccc3c1O2
6. CCC[C@@H]1CN(C(=O)c2ccccc2-c2ncc[nH]2)C[C@H]1N(C)C
7. CC(C1CC1)N(C)C(=O)CCn1cccn1 (stereo unspecified)
8. CCc1ccccc1NC(=O)NCc1nnc(SC)n1C

Output line:
[5.887, -6.188, -0.1203, 8.829, 109.8, 29.83, -12.77, 130.1]

----------
Test system: Wolbachia pipientis
EXPERIMENT_DESCRIPTION: Anti-Wolbachia Cell-Based Screen
Format: functional
Design: scale not given: in the data most compounds retested in dose-response had high values
ASSAY_CONTEXT: 5 µM
In all, about 48,000 compounds went through this assay and about 13,000 (27%) showed an effect of 50% or more. The list shows a part of the results.
READOUT_LABEL: Percent Effect

Answered examples (3):
Input line: Item: CC(C)Cc1cc(C(=O)NCC2CCN(c3ccccc3F)C2)on1 (stereo unspecified) Test system: Wolbachia pipientis Read-out: Percent Effect Value: ?
Output line: -10.11%

Input line: Which measured Percent Effect belongs to `CN1CCOCC12CCN(c1ccc(C#N)cc1)CC2.O=C(O)C(F)(F)F` , tested on Wolbachia pipientis?
Output line: -6.092%

Input line: // lookup Percent Effect | system=Wolbachia pipientis | key= COc1cc(C(=O)NCC2CCCN(Cc3ccco3)C2)ccn1 (stereo unspecified)
Output line: 2.476%

Could you tell me Percent Effect for each of these compounds? They are listed below.
1. Cn1cc(C(=O)N2CCCC(Cc3cnccn3)C2)cn1 (stereo unspecified)
2. N#Cc1ccc(NCc2cccnc2N2CCC(C(N)=O)CC2)cn1
3. CC(C)Cc1cc(C(=O)NCC2CCCN(Cc3ccco3)C2)on1 (stereo unspecified)
4. N#Cc1ccc(N2CCC3(CC2)CC(N2CCOCC2)CO3)cc1.O=C(O)C(F)(F)F (stereo unspecified)
5. COc1cccc(OCC2CCCN(C(=O)c3cnn(C)c3)C2)c1 (stereo unspecified)
6. CCS(=O)(=O)N1CCCC(Cc2cnccn2)C1 (stereo unspecified)
7. N#CCCN(CC1CCCO1)C(=O)c1ccsc1 (stereo unspecified)

Output line:
["110.5%", "11.59%", "50.17%", "99.84%", "-49.1%", "118.2%", "115.2%"]

For each of the compounds below, note its Percent Effect.
1. CC(=O)N(Cc1noc(C2CC2)n1)C1CCN(CC2CCOCC2)C1 (stereo unspecified)
2. CC(=O)N(C)Cc1ccc(OCc2cccs2)cc1
3. N#CCCN(CC1CCCO1)C(=O)c1ccc2nonc2c1 (stereo unspecified)
4. CC(C)CN1C(=O)C2(CCN(Cc3nccs3)C2)c2ccccc21.O=C(O)C(F)(F)F (stereo unspecified)
5. Cc1cc(C(=O)NCc2ccc(N3CCCC(C(N)=O)C3)cc2)no1 (stereo unspecified)
6. CC(=O)N(Cc1noc(C2CC2)n1)C1CCN(CC(=O)NC2CC2)C1 (stereo unspecified)

Output line:
1. 115.6%
2. 14.59%
3. 113%
4. 21.56%
5. -5.438%
6. 124.3%

Your task in this section: give Percent Effect for each listed record.
1. CC(C)CN1C(=O)C2(CCN(Cc3cccs3)C2)c2ccccc21.O=C(O)C(F)(F)F (stereo unspecified)
2. COC(C)c1cccc(NCc2cccc(O)c2)c1 (stereo unspecified)
3. CC(C)(C)NC(=O)CN1CCCN(Cc2ccc(C#N)cc2)CC1
4. CNC(=O)COC1COC2(CCN(c3ccc(C#N)cc3)CC2)C1.O=C(O)C(F)(F)F (stereo unspecified)

Output line:
1: 129.4%; 2: 1.439%; 3: 13.98%; 4: 4.884%

For each of the compounds below, note its Percent Effect.
1. Cn1cc(C(=O)N2CCCC2CCc2ccccc2)cn1 (stereo unspecified)
2. Cc1ccc(CN2CCC3(C2)C(=O)N(CC(N)=O)c2ccccc23)s1 (stereo unspecified)
3. O=C(c1cccc(=O)[nH]1)N(Cc1ccsc1)CC1CCCO1 (stereo unspecified)
4. Cc1nc2cc(C(=O)N(CCC#N)CCC#N)ccc2n1C
5. COc1ccc(C2OC(COc3ccc(C)cc3)=NN2C(C)=O)cc1 (stereo unspecified)
6. COc1ccc(C)cc1S(=O)(=O)NCC(c1cccn1C)N(C)C (stereo unspecified)
7. Cc1nc(CNC2CCN(Cc3ccccc3)C2)sc1C (stereo unspecified)

Output line:
1. 11.22%
2. -16.39%
3. -26.62%
4. -0.9305%
5. 120.9%
6. 4.095%
7. -5.508%
